- System: K562
- method-summary: NCI tumour cell line growth inhibition, 48 h
The source made the active and inactive calls. No stated cut-off is given here; in the data, active = GI50 up to about 1.1 µM and inactive = higher.
measure: GI50

Field: example entries. Status: answers known.
Cc1ccc(SC(CCC(Sc2ccc(C)cc2)Sc2ccc(C)cc2)Sc2ccc(C)cc2)cc1 | > 100 µM (inactive)
COC(=O)C1(Cc2ccccc2)Cc2ccc3c(c2C1=O)CCC3 (stereo unspecified) | 30.6 µM (inactive)
CCCNC(=O)Nc1c([N+](=O)[O-])cc(C(F)(F)F)cc1[N+](=O)[O-] | 47.1 µM (inactive)
C(=N\c1ccc(-c2cc(-c3ccccc3)nc3ccc4ccccc4c23)cc1)/c1ccccc1 | 4.79 µM (inactive)

Input line: # returns recorded GI50 (system: K562) for COc1cccc2c1C(=O)c1c(O)c3c(c(O)c1C2=O)C[C@@](O)(C(C)=O)CC3S(=O)(=O)O (stereo partly specified)
Output line: > 100 µM (inactive)

Input line: Param item: CC1C(c2ccc(N(C)C)cc2)c2cc3c(cc2OC1N1CCCC1)OCO3 (stereo unspecified)
Output line: 32.5 µM (inactive)

Input line: Param item: CC(=O)/C(=N\N=C(N)N)c1ccccc1
Output line: > 100 µM (inactive)

Input line: Param item: COCCOCCOC1=C(Cl)C(=O)c2c(O)ccc(O)c2C1=O
Output line: 1.21 µM (inactive)

Input line: Param item: O=C(Sc1c(-c2ccccc2)c(=O)n(-c2ccccc2)c(=S)n1-c1ccccc1)c1ccco1
Output line: 34 µM (inactive)

Input line: Param item: O=C1CCc2ccccc2O1 [DIHYDROCOUMARIN]
Output line: > 100 µM (inactive)

Input line: Param item: COC(=O)CCC12CCC(O1)c1ccccc12 (stereo unspecified)
Output line: > 100 µM (inactive)

====

- Tested on: HCT-116
- method-summary: NCI tumour cell line growth inhibition, 48 h
Activity calls are given as the source filed them. Cut-off read from the data, not from the text of the source: active = GI50 up to about 1.1 µM and inactive = higher.
measure: GI50

Input line: # returns recorded GI50 (system: HCT-116) for COC(=O)/C=C/c1cnc2c(c1)oc(=O)n2CCc1ccccn1
Output line: > 100 µM (inactive)

Input line: Param item: Clc1ccc(C(Cc2ccccc2)c2c(Cl)nc(N3CCNCC3)nc2Cl)cc1 (stereo unspecified)
Output line: 8.38 µM (inactive)

Input line: Param item: CC(C)c1cccc(C(C)C)c1NC(=O)C(=O)C1CCC2=C(Sc3ccccc3N2)C1=O (stereo unspecified)
Output line: 48.9 µM (inactive)

Input line: Param item: ClC1CCC2OOC1O2 (stereo unspecified)
Output line: 61.1 µM (inactive)

Input line: Param item: BrC1(Br)C2/C=C\CCCCC21 (stereo unspecified)
Output line: > 100 µM (inactive)

Input line: Param item: CCOC1=C/C(=N\Nc2ccc([N+](=O)[O-])cc2)CCC1
Output line: 41.7 µM (inactive)

====

- System: SNB-75
- method-summary: NCI tumour cell line growth inhibition, 48 h
The source made the active and inactive calls. Cut-off read from the data, not from the text of the source: active = GI50 up to about 1.1 µM and inactive = higher. Where a SMILES comes first, the peptide text is derived from it. The star is where a group is joined. Boc = CC(C)(C)OC(=O)*; nBu = CCCC*
Give your call using only these classes: active, inactive

The examples below pair each entry with its known result.
CCOC(CNCCC(=O)OC)OCC | inactive
CC(=O)/C(=N\N=C(N)N)c1ccccc1 | inactive
CCCCCCCC(=O)OC[C@@H](C[As](=O)(O)O)OC(=O)CCCCCCC | inactive
CCCCOc1ccc(CC(NC(=O)OC(C)(C)C)C(=O)NC(C)C(=O)NC(Cc2ccccc2)C(=O)NCC(N)=O)cc1 (centres undefined) (Boc-Y(nBu)AFG-NH2; configuration not given here) | inactive

Input line: Hi team, can someone confirm the assay call for CCOC(=O)/C=C(/C(=O)OCC)n1cc(C)c(=O)n(Cc2cn(CCCCOC(C)=O)nn2)c1=O ?
Output line: inactive

Input line: Param item: Cc1ccc(SCC(CF)OC(C)n2cnc3c(O)nc(N)nc32)cc1 (centres undefined)
Output line: inactive

Input line: Param item: Cc1ccc(Oc2ccc(C)cc2N)cc1
Output line: inactive

====

Overview of recorded GI50 for various compounds
- Tested on: NCI/ADR-RES
- method-summary: NCI tumour cell line growth inhibition, 48 h
Calls of active or inactive are those of the source. No stated cut-off is given here; in the data, active = GI50 up to about 1.1 µM and inactive = higher.

Cc1ccc2[nH]c3c(C)c4cc[n+](C)cc4c(C)c3c2c1 | 7.93 µM (inactive)
COc1cc(C2c3cc4c(cc3OC(Nc3ccccc3)C2C)OCO4)cc(OC)c1O (stereo unspecified) | 2.38 µM (inactive)
NC(=O)Cc1nc2c(N)ncnc2n1C1OC(CO)C(O)C1O (stereo unspecified) | > 100 µM (inactive)
CC(C)(C)OC(=O)N1C(C2=COc3ccccc3O2)=COc2cccnc21 | 2 µM (inactive)

Input line: Field request: GI50 | item: C1COC(NC(C2CC2)C2CC2)=N1
Output line: > 100 µM (inactive)

Input line: Param item: CC(=O)N1C=Cc2c(c(C)c3c([nH]c4ccccc43)c2C)C1
Output line: 2.5 µM (inactive)

====

Overview of recorded GI50 for various molecules
- Tested on: NCI-H460
- method-summary: NCI tumour cell line growth inhibition, 48 h
Activity calls are given as the source filed them. No stated cut-off is given here; in the data, active = GI50 up to about 1.1 µM and inactive = higher.

Field: example entries. Status: answers known.
CCOC(=O)c1cn(CC)c2cc3c(cc2c1=O)SCS3 | > 100 µM (inactive)
c1ccc2c(CSCc3cccc4ccccc34)cccc2c1 | 43.4 µM (inactive)
O=C(CC(=O)C1=CNc2ccccc2S1)C(=O)Nc1ccc(Cl)cc1 | > 50 µM (inactive)
CC(=O)OC12/C(=N/O)CCCCCC1c1ccccc12 (stereo unspecified) | > 100 µM (inactive)
O=C1CSC(c2c[nH]c3ccccc23)N1c1ccc(Cl)cc1 (stereo unspecified) | > 100 µM (inactive)
Clc1ccc(C(Cc2ccccc2)c2c(Cl)nc(N3CCNCC3)nc2Cl)cc1 (stereo unspecified) | 12.1 µM (inactive)
CC(=O)NNc1nc(C)c(C(/C=C/c2ccc(NC(C)=O)cc2)=N/NS(=O)(=O)c2ccc(C)cc2)s1 | > 100 µM (inactive)
O=C(O)CNC(=O)c1ccc2cc(C(=O)N3CC(CCl)c4ccc([N+](=O)[O-])cc43)[nH]c2c1 (stereo unspecified) | > 100 µM (inactive)
COCCOCCOCCOc1ccc(C(C#N)N(CCc2ccccc2)C(=O)c2cc(C(=O)N(CCc3ccccc3)C(C#N)c3ccc(OCCOCCOCCOC)cc3)cc(C(=O)N(CCc3ccccc3)C(C#N)c3ccc(OCCOCCOCCOC)cc3)c2)cc1 (stereo unspecified) | > 100 µM (inactive)
COc1ccc2c(c1)[n+]([O-])c(/C(C)=N/NC(N)=S)c(C)[n+]2[O-] | 27.8 µM (inactive)

Input line: # returns recorded GI50 (system: NCI-H460) for N#C/C(=C\c1ccc(O)cc1)C(N)=O
Output line: > 100 µM (inactive)

Input line: Param item: CC1(c2ccc(F)cc2)C2C(=O)NC(=O)C1C(=O)NC2=O (stereo unspecified)
Output line: > 100 µM (inactive)

Input line: Param item: CCCSCC(P(=O)(O)O)P(=O)(O)O.NC1CCCCC1
Output line: > 100 µM (inactive)

Input line: Param item: C1COC(NC(C2CC2)C2CC2)=N1
Output line: > 100 µM (inactive)

Input line: Param item: CC1(C)C(C(=O)OC(C#N)c2cccc(OCC(=O)OCc3ccccc3)c2)C1(C)C (stereo unspecified)
Output line: > 100 µM (inactive)

====

- System: RPMI-8226
- method-summary: NCI tumour cell line growth inhibition, 48 h
The source made the active and inactive calls. No stated cut-off is given here; in the data, active = GI50 up to about 1.1 µM and inactive = higher.
Give your call using only these classes: 1 (yes) for active, 0 (no) for inactive

The examples below pair each entry with its known result.
O=C1CCc2ccccc2O1 [DIHYDROCOUMARIN] | 0 (no)
COC(=O)C1(Cc2ccccc2)Cc2ccc3c(c2C1=O)CCC3 (stereo unspecified) | 0 (no)
COC(=O)C1=C(C)N2CCCOC2(C)C(C(=O)OC)C1c1cccc(Cl)c1 (stereo unspecified) | 0 (no)

Input line: Hi team, can someone confirm the assay call for C(=N\c1ccc(-c2cc(-c3ccccc3)nc3ccc4ccccc4c23)cc1)/c1ccccc1 ?
Output line: 0 (no)

Input line: Param item: COC1/C=C\C=C(/C)C(=O)NC2=CC(=O)C=C(C2=O)C(OC)C(C)CC(OC)C(OC)C(C)/C=C(/C)C1OC(N)=O (stereo unspecified)
Output line: 1 (yes)

Input line: Param item: COC(=O)NC1=NNC(=O)c2ccccc2N1
Output line: 0 (no)

Input line: Param item: Cc1ccc(/N=N/N(C)C(=O)C(C)N)cc1 (stereo unspecified)
Output line: 0 (no)

Input line: Param item: C1COC(NC(C2CC2)C2CC2)=N1
Output line: 0 (no)

Input line: Param item: COc1ccc(NC2=CC(=O)C(=O)c3ccccc32)nn1
Output line: 0 (no)

Input line: Param item: Cc1ccc(O)c(C2=NNC(c3cccc(Cl)c3)C2)c1 (stereo unspecified)
Output line: 0 (no)
